- testTarget: T1, Human B7-H4 with HisFlag tag (huB7-H4-his) (human, UniProt Q7Z7D3 25-258)
- T1 construct: also called HuB7-H4 His protein; huB7-H4-HF
- T1 sequence: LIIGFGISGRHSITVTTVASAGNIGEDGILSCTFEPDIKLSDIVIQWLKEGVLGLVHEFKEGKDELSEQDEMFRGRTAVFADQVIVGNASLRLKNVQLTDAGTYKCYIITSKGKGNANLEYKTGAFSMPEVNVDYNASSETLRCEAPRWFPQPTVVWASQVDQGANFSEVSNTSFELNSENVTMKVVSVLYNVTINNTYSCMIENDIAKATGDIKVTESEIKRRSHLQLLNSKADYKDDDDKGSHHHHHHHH
- assayProtocol: SPR Biacore T200, antibody coupled to CM5 chip, 50 nM huB7-H4-his in flow, 1:1 model
Measured koff accompanies every entry in the list below.
measuredParameter: koff (s⁻¹)

[[record]]
binder = "murine mAb 2A10 (antibody, V domains shown, Murine antibody from hybridoma) VH: EVQLVESGGGFVKPGGSLKLSCAASGFTFSTFGMSWVRQTPDKRLEWVAGISPGGSYTYYPDTVKGRFTISRDNARNTLYLQMSSLRSEDSAMYYCTRGRSVWGTGTTVTVSS VL: DILMTQSPSSMSVSLGDTVSITCHASQDISSNIGWLQQKPGKSFKGLIYHGTTLEDGIPSRFSGSGSGADYSLTISSLESEDFADYYCVQSAQFPWTFGGGTKLEIK"
u = "s⁻¹"
readoutvalue = 0.000331

[[record]]
binder = "murine mAb 2G6 (antibody, V domains shown, Murine antibody from hybridoma) VH: EVQLVESGGGLVKPGGSLKLSCAASGFTFSRYGMSWVRQTPEKRLEWVAGINGGGSYTYYLDTVKGRFTISRDNSRNTLYLQMSSLRSEDTAMYYCVSQGSNYYFDYWGQGTTLTVSS VL: DIRMTQSPSSMSVSLGDTVSITCHASQGISSNIGWLQQKPGKSFKALIYHGTNLEDGVPSRFSGSGSGADYSLTISSLESEDFADYYCVQYAQFPYTFGGGTKLEIK"
u = "s⁻¹"
readoutvalue = "8.91e-05"

[[record]]
binder = "murine mAb 2F4 (antibody, V domains shown, Murine antibody from hybridoma) VH: EVQLVESGGGLVKPGGSLKLSCAASGLTFSRYAMSWVRQTPEKRLEWVAGISSGGSYTYYSDTVKGRFTISRDNVRNTLYLQMSSLRSEDTAMYYCGREYGRDYWGQGTSVTVSS VL: DILMTQSPSSMSVSLGDTVSITCHASQGINSNIGWLQQKPGKSFKGLIYHGTNLEDGVPSRFSGSGSGTDYSLTISSLESEDFADYYCVQYAQFPRTFGGGTTLEIK"
u = "s⁻¹"
readoutvalue = 0.00166

[[record]]
binder = "murine mAb 2E4 (antibody, V domains shown, Murine antibody from hybridoma) VH: QVQLQQPGSVLVRPGTSVKLSCKASGYTFTSSWMNWVKQRPGQGLEWIGGIYPNRGTTEYNEKFKGKATLTVDTSSSTAFMDLNRLTSEDSAVYYCARDSRFADWGQGTLVTVSA VL: DIMLTQSHKFMSTSVGDRVSITCKASQDVSAAVAWYQQKPGQSPKLLISSASYRYTGVPDRFTGSGSGTDFTFTISSVQAEDLAVYYCQQHYNTPLTFGAGTKLELK"
u = "s⁻¹"
readoutvalue = "5.97e-05"

[[record]]
binder = "murine mAb 1E4 (antibody, V domains shown, Murine antibody from hybridoma) VH: EVQLVESGGGLVKPGGSLKLSCAASGFTFSRYAMSWVRQTPEKRLEWVAGISSGGSYTYYPDTLKGRFTVSRDNARNTLYLQMSSLRSEDTAKYFCASQGSNHYFDYWGQGTTLTVSS VL: DTLMTQSPSSMSVSLGDTVSITCHASQGIHNNIGWLQQKPGKSFKALIYHGTNLEDGVPSRFSGSGSGADYSLIISSLESEDFADYYCVQYAQFPYTFGGGTKLEIK"
u = "s⁻¹"
readoutvalue = 0.000293

